experimental-system: Solute carrier family 12 member 5 (Homo sapiens, UniProt Q9H2X9)
assay-procedure: concentration-response of KCC2 transport modulators – cell-based, HEK293 KCC2, FluoZin-2 fluorescence, dose response (AID 1736)
particulars: inactive by the depositor's call
Please assign NO whenever EC50 is at or above 10 µM, and YES whenever it is below.

These recorded examples may help you get a feel for the data.
{"columns": ["compound", "class-assignment"],
 "data": [
  ["CC(C(=O)N=c1sc2ccccc2n1C)N1C(=O)C2CC=CCC2C1=O (stereo not given)", "NO"],
  ["O=C(Nc1ccc(Cc2ccncc2)cc1)c1ccc(N2CCOCC2)c([N+](=O)[O-])c1", "NO"],
  ["S=C(NCCc1ccccc1)NCc1cccs1", "YES"],
  ["CSc1ccc(NC(=O)NCCN2CCc3ccccc3C2)cc1", "NO"],
  ["COc1ccc(C(c2nnnn2Cc2cccs2)N2CCN(c3ccccc3F)CC2)cc1 (stereo not given)", "NO"]
]}

is_below(EC50, 10 µM) for COc1ccc(N(CC(=O)Nc2ccc(C)c(C)c2)S(=O)(=O)c2c(C)n[nH]c2C)cc1 [SMR000027403] ?
NO

is_below(EC50, 10 µM) for O=C(Cn1nnc(-c2ccccc2-n2cnnn2)n1)NCc1ccccc1 [MLS000073516] ?
NO

is_below(EC50, 10 µM) for N#C/C(=C\c1ccc(-c2cccc([N+](=O)[O-])c2)o1)C(=O)Nc1nc(-c2cccs2)cs1 [MLS000402444] ?
YES

is_below(EC50, 10 µM) for CN(CC(=O)N1CC(=O)N(CCc2ccccc2)C(=O)C1)S(=O)(=O)c1cccc2nsnc12 [MLS000095099] ?
NO

is_below(EC50, 10 µM) for Cc1nnc(NC(=O)c2ccc3ccccc3c2)o1 [MLS000056450] ?
NO

is_below(EC50, 10 µM) for `O=C(Cn1cnc2c(nnn2Cc2ccc(F)cc2)c1=O)NCc1ccco1` ?
NO

is_below(EC50, 10 µM) for `Cc1cc(Cl)ccc1Oc1ccccc1C(=O)CC#N` ?
NO

is_below(EC50, 10 µM) for COc1ccc(CN(C(=O)c2ccc(-c3ccccc3)[nH]2)C(C(=O)NC(C)(C)C)c2ccncc2)cc1 (stereo not given) [SMR000279859] ?
NO

is_below(EC50, 10 µM) for `O=c1cc(CSc2nnnn2-c2ccccc2)nc2scc(-c3ccccc3)n12` ?
NO

is_below(EC50, 10 µM) for `O=C(NCCSCc1ccccc1)c1cc(S(=O)(=O)N2CCOCC2)ccc1F` ?
NO

is_below(EC50, 10 µM) for CCOC(=O)c1c(C)[nH]c(C)c1C(=O)CSc1nc(N)cc(N)n1 [SMR000063952] ?
YES

is_below(EC50, 10 µM) for `O=C(NC(=S)Nc1ccc2c(c1)OCO2)c1ccc(Cl)cc1` ?
YES

is_below(EC50, 10 µM) for CCC(C)(C)n1nnnc1C(c1ccc(O)c(OC)c1)N1CCN(c2nc3ccccc3s2)CC1 (stereo not given) ?
YES

is_below(EC50, 10 µM) for CC1=NN(C(=O)c2ccc(Br)cc2)C(O)(C(F)(F)OC(F)(F)F)C1 (stereo not given) ?
YES

is_below(EC50, 10 µM) for `CN1C(=CC(=O)C2CCC2)Sc2ccccc21` ?
NO

----------
experimental-system: Solute carrier family 12 member 5 (Homo sapiens)
Sequence (Q9H2X9 whole entry): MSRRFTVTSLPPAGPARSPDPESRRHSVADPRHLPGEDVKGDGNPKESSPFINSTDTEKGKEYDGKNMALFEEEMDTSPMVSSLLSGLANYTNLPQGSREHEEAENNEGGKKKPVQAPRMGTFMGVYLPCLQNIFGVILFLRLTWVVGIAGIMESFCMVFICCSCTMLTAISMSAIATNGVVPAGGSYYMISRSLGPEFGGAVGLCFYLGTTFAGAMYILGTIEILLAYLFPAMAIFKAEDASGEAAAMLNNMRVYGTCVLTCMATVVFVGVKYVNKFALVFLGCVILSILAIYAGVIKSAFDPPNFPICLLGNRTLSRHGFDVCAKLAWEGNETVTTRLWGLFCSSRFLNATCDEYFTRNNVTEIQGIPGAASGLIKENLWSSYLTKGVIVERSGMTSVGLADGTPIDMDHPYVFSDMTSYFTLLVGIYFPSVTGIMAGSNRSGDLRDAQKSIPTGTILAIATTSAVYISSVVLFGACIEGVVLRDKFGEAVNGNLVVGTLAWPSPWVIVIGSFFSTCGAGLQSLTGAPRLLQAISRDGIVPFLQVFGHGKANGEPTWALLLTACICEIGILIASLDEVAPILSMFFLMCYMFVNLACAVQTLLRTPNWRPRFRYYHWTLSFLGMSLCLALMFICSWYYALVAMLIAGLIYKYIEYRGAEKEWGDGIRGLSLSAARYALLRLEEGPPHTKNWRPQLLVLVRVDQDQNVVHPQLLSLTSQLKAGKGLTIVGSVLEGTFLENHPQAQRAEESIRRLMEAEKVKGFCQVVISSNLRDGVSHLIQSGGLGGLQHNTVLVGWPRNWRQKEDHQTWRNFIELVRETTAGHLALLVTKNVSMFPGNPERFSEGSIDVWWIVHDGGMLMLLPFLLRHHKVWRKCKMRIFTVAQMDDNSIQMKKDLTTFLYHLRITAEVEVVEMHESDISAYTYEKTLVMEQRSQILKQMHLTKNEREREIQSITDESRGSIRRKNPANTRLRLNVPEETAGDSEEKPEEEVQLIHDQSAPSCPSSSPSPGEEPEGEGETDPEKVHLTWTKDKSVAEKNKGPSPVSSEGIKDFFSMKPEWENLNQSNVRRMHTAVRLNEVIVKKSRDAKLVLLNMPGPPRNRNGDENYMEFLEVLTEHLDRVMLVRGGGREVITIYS
assay-procedure: concentration-response of KCC2 transport modulators – cell-based, HEK293 KCC2, FluoZin-2 fluorescence, dose response (AID 1736)
Please assign no whenever EC50 is at or above 20 µM, and yes whenever it is below.

These recorded examples may help you get a feel for the data.
{"columns": ["molecule", "experimental-system", "class-assignment"],
 "data": [
  ["NC(=O)COc1ccccc1/C=C1/SC(=O)N(CC(=O)N2CCc3ccccc3C2)C1=O", "Solute carrier family 12 member 5 (Homo sapiens)", "yes"],
  ["COc1ccc(-n2cnnc2SCC(=O)Nc2cc(S(=O)(=O)N3CCCCC3)ccc2C)cc1", "Solute carrier family 12 member 5 (Homo sapiens)", "yes"],
  ["COc1cccc(Nc2nnc(S)s2)c1", "Solute carrier family 12 member 5 (Homo sapiens)", "yes"]
]}

is_below(EC50, 20 µM) for `O=C(Nc1cccnc1)c1ccc(COc2cc(Cl)ccc2Cl)o1` ?
no

is_below(EC50, 20 µM) for `COC(=O)Cc1[nH]n(-c2nc3ccccc3s2)c(=O)c1C(C)=Nc1ccc(Cl)cc1` ?
no

----------
Reported EC50 values for the following molecules.
experimental-system: Solute carrier family 12 member 5 (Homo sapiens)
assay-procedure: concentration-response of KCC2 transport modulators – cell-based, HEK293 KCC2, FluoZin-2 fluorescence, dose response (AID 1736)
Don't forget the unit after the number, please.

Here's what some known entries look like.
{"columns": ["molecule", "EC50"],
 "data": [
  ["O=C(NCCOc1ccccc1F)c1ccccc1SCc1ccc(F)cc1", "0.313 µM"],
  ["O=C(O)CCN(Cc1ccccc1)S(=O)(=O)c1c(Cl)cccc1Cl", "53.1 µM"],
  ["O=c1[nH]c2c(s1)C(c1ccccc1)c1c(c(O)n(-c3ccccc3)c1O)S2 (centres undefined)", "0.102 µM"]
]}

EC50 recorded for this molecule, COc1ccccc1-n1cnc2cc(NS(=O)(=O)c3ccccc3)ccc21 [MLS000032522] , is 101 µM

----------
experimental-system: UniProt Q9H2X9
assay-procedure: concentration-response of KCC2 transport modulators – cell-based, HEK293 KCC2, FluoZin-2 fluorescence, dose response (AID 1736)
readout-type: pEC50
Just the number, please; pEC50 means minus log10 of the concentration in mol/L.

pEC50 recorded for this molecule, `Cc1[nH]c2ccccc2c1Cc1nnc(S)o1` , is 5.80

pEC50 recorded for this molecule, CC(C)(C)NC(=O)C(c1ccncc1)N(Cc1ccco1)C(=O)c1ccc(-c2ccccc2)[nH]1 (configuration not stated) , is 4.58

pEC50 recorded for this molecule, `Cc1ccc(NC(=O)c2ccccc2NS(=O)(=O)c2ccc(Cl)s2)cc1` , is 5.79

pEC50 recorded for this molecule, `Cc1csc(NC(=O)CSc2ccc(-c3ccccc3)nn2)n1` , is 6.31

pEC50 recorded for this molecule, O=C(NN=Cc1ccc(Cl)s1)C1COc2ccccc2O1 (configuration not stated) , is 4.49

pEC50 recorded for this molecule, `Cc1cc(NC(=O)CSc2ccc(-c3ccc(F)cc3)nn2)no1` , is 6.74

pEC50 recorded for this molecule, CSCCC(=O)N1CCCC(CNC(=O)c2ccc(-c3ccccc3)cc2)C1 (configuration not stated) , is 5.29

pEC50 recorded for this molecule, `Cc1ccc(-c2n[nH]c(=S)n2NC=CCc2ccccc2[N+](=O)[O-])cc1` , is 5.74

pEC50 recorded for this molecule, `Cc1cc(C)c(C#N)c(N2CCN(Cc3ccccc3)CC2)n1` , is 4.71

pEC50 recorded for this molecule, `O=C(O)/C=C/c1cn(Cc2ccccc2)nc1-c1ccccc1` , is 1.86

pEC50 recorded for this molecule, `O=C(CCSCCc1ccccn1)Nc1ccc(Cc2ccncc2)cc1` , is 5.08

pEC50 recorded for this molecule, `CNC(=O)/C(=C\C=C\c1ccccc1)NC(=O)c1ccc([N+](=O)[O-])cc1` , is 5.49
